Biological target: Human plasma purified α-thrombin (Homo sapiens, UniProt P00734)
Experiment: Thrombin cleavage kinetics of quenched fluorescence (QF) peptide substrates, progress curve
Type: biochemical
Conditions: kcat/KM relative to FpA substrate Lys(Dnp)-DFLAEGGGVRIVGG-Lys(Abz)
Where no end group is shown, it is not given here. The star is where a group is joined. Dnp = O=[N+]([O-])c1ccc(*)c([N+](=O)[O-])c1; 2Abz = Nc1ccccc1C(=O)O
Each record here notes measured Fold-Improved (FpA).

Sample records with Fold-Improved (FpA):
{"columns": ["substance", "recorded value"],
 "data": [
  ["Factor V (2): QF substrate Lys(Dnp)-X10-X1-IVGG-Lys(Abz), X10-X1 = NRLAAALGIR (K(Dnp)NRLAAALGIRIVGGK(2Abz))", 1.8],
  ["Thrombin (1): QF substrate Lys(Dnp)-X10-X1-IVGG-Lys(Abz), X10-X1 = DQVTVAMTPR (K(Dnp)DQVTVAMTPRIVGGK(2Abz))", 73.6],
  ["Factor VIII (1): QF substrate Lys(Dnp)-X10-X1-IVGG-Lys(Abz), X10-X1 = LSKNNAIEPR (K(Dnp)LSKNNAIEPRIVGGK(2Abz))", 32.3],
  ["FpA_P: QF substrate Lys(Dnp)-X10-X1-IVGG-Lys(Abz), X10-X1 = DFLAEGGGPR; FpA with proline at X2 (K(Dnp)DFLAEGGGPRIVGGK(2Abz))", 97.8]
]}

State recorded Fold-Improved (FpA) with Human plasma purified α-thrombin (Homo sapiens, UniProt P00734), entry Factor XI: QF substrate Lys(Dnp)-X10-X1-IVGG-Lys(Abz), X10-X1 = NESTTKIKPR (K(Dnp)NESTTKIKPRIVGGK(2Abz)) , no comment. 49.2

Name the value of Fold-Improved (FpA) reported for Factor V (3): QF substrate Lys(Dnp)-X10-X1-IVGG-Lys(Abz), X10-X1 = PDNIAAWYLR (K(Dnp)PDNIAAWYLRIVGGK(2Abz)) when tested on Human plasma purified α-thrombin (Homo sapiens, UniProt P00734). 0.2

* * *

Target: Human plasma purified Factor Xa (Homo sapiens, UniProt P00742)
Construct: purchased Molecular Innovations, Inc, Novi Mich., USA; host or cells: human plasma
Sequence (P00742 41-179 limits assumed): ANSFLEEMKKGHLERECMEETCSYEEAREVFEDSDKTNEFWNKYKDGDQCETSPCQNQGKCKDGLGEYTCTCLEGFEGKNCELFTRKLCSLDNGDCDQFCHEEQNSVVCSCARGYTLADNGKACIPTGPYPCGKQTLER
Sequence (P00742 235-488 limits assumed): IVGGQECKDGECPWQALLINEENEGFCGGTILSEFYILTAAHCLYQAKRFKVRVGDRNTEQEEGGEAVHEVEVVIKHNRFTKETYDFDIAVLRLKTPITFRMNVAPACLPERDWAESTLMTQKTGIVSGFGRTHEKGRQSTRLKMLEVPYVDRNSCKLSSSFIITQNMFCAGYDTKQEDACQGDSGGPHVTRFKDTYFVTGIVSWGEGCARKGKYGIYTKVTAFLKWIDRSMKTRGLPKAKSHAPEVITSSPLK
Assay: Factor Xa cleavage kinetics of quenched fluorescence (QF) peptide substrates, progress curve
Assay type: biochemical
Details: FIIa kcat/KM divided by FXa kcat/KM; natural sequence QF substrates
Where no end group is shown, it is not given here. The star is where a group is joined. Dnp = O=[N+]([O-])c1ccc(*)c([N+](=O)[O-])c1; 2Abz = Nc1ccccc1C(=O)O
Class (required): determined from Specificity Ratio (FIIa/FXa); valid ranges are group A = under 5, group B = from 5 up to 100, group C = 100 and over

Here are 5 substances together with their reported answers.
{"columns": ["substance", "label"],
 "data": [
  ["Factor XI: QF substrate Lys(Dnp)-X10-X1-IVGG-Lys(Abz), X10-X1 = NESTTKIKPR (K(Dnp)NESTTKIKPRIVGGK(2Abz))", "group C"],
  ["Antithrombin: QF substrate Lys(Dnp)-X10-X1-IVGG-Lys(Abz), X10-X1 = ASTAVVIAGR (K(Dnp)ASTAVVIAGRIVGGK(2Abz))", "group A"],
  ["FpB: QF substrate Lys(Dnp)-X10-X1-IVGG-Lys(Abz), X10-X1 = DNEEGFFSAR (K(Dnp)DNEEGFFSARIVGGK(2Abz))", "group A"],
  ["TAFI: QF substrate Lys(Dnp)-X10-X1-IVGG-Lys(Abz), X10-X1 = QISNDTVSPR (K(Dnp)QISNDTVSPRIVGGK(Abz))", "group B"],
  ["Osteopontin: QF substrate Lys(Dnp)-X10-X1-IVGG-Lys(Abz), X10-X1 = RGDSVVYGLR (K(Dnp)RGDSVVYGLRIVGGK(Abz))", "group C"]
]}

For this substance, which bin applies? Factor V (1): QF substrate Lys(Dnp)-X10-X1-IVGG-Lys(Abz), X10-X1 = HTHHAPLSPR (K(Dnp)HTHHAPLSPRIVGGK(Abz)) group A

Band for the recorded Specificity Ratio (FIIa/FXa) of Lys(Dnp)-DFLAEGGGVRIVGG-Lys(Abz) (K(Dnp)DFLAEGGGVRIVGGK(2Abz)) [FpA, reference compound] ? group C

For this substance, which bin applies? PAR 4: QF substrate Lys(Dnp)-X10-X1-IVGG-Lys(Abz), X10-X1 = STPSILPAPR (K(Dnp)STPSILPAPRIVGGK(2Abz)) group B

Lab log: Thrombin (3): QF substrate Lys(Dnp)-X10-X1-IVGG-Lys(Abz), X10-X1 = EDSDRAIEGR (K(Dnp)EDSDRAIEGRIVGGK(2Abz)) — assign Specificity Ratio (FIIa/FXa) category group C

The entry to classify is Thrombin (1): QF substrate Lys(Dnp)-X10-X1-IVGG-Lys(Abz), X10-X1 = DQVTVAMTPR (K(Dnp)DQVTVAMTPRIVGGK(2Abz)) ; which class holds it? group B

Category of Protein C: QF substrate Lys(Dnp)-X10-X1-IVGG-Lys(Abz), X10-X1 = EDQEDQVDPR (K(Dnp)EDQEDQVDPRIVGGK(2Abz)) , please. group C
